Tested on: SNB-19 CNS
experimental-protocol: NCI tumour cell line growth inhibition, 48 h
assay-readout: TGI

Sample answers from the record:
O.O=[Se](=O)(O)O.[NH-]C1CCCCC1[NH-].[Pt+2] (centres undefined): > 100 µM
Cc1nc(-c2ccc(Cl)cc2)cn2c1nc1ccccc12: > 100 µM

Observed TGI on SNB-19 CNS for `CC(C)(C)OC(=O)N[C@@H](Cc1ccccc1)C(=O)N1CC[C@@H](C(=O)N2[C@H]3CC4CC[C@@]3(CS2(=O)=O)C4(C)C)N1` , please.
> 100 µM

Try C[N+](C)(C)c1nc(N)nc2c1ncn2C1OC(CO)C(O)C1O (centres undefined) next.
> 100 µM

Try `Cc1nc(Nc2ccc([N+](=O)[O-])cc2)sc1C(=O)/C=C/c1ccc(N(C)C)cc1` next.
> 100 µM
